Recorded below: IC50, system Butyrylcholinesterase (Rattus norvegicus, UniProt Q9JKC1).
Unit µM implied. Number only.

Return the recorded IC50 value; entry: Nc1c2c(nc3nn(-c4ccccc4)cc13)CCCC2
31.9

We next turn to a different compound, shown below.
Return the recorded IC50 value; entry: Cc1nn(-c2ccccc2)c2nc3nc4c(c(N)c3cc12)CCCC4
134

* * *

IC50 values by entry
measuredOn: Acetylcholinesterase (Rattus norvegicus, UniProt P37136)
Sequence (P37136 whole entry): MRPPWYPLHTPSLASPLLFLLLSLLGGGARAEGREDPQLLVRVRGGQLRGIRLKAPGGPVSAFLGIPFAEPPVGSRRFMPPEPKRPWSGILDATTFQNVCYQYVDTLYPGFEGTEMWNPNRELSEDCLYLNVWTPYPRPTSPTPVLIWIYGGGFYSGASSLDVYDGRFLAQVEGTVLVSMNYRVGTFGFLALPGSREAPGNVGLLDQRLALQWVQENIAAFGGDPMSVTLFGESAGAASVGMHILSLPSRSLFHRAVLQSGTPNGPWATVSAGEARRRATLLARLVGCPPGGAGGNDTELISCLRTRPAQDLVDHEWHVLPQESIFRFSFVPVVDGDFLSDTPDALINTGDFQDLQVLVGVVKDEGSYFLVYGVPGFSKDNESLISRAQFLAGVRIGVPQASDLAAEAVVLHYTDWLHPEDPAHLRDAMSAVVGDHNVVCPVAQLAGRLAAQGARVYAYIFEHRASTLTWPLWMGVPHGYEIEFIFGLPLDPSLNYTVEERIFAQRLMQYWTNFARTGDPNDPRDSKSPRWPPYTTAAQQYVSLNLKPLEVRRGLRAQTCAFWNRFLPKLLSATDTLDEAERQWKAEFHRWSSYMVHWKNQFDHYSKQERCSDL
Note: state the figure and append the unit.

Answered examples (4):
Find IC50 for Cc1nn(-c2ccccc2)c2nc3nc4c(c(N)c3cc12)CCC4 on Acetylcholinesterase (Rattus norvegicus, UniProt P37136) and write it down.
23.2 µM

Find IC50 for Cc1nn(-c2ccccc2)c2nc3nc4c(c(N)c3cc12)CCCC4 on Acetylcholinesterase (Rattus norvegicus, UniProt P37136) and write it down.
6.39 µM

Find IC50 for Cc1nn(-c2ccccc2)c2nc3c(c(N)c12)CCCC3 on Acetylcholinesterase (Rattus norvegicus, UniProt P37136) and write it down.
28.5 µM

Find IC50 for Cc1nn(-c2ccccc2)c2c(N)c3c(nc12)CCC3 on Acetylcholinesterase (Rattus norvegicus, UniProt P37136) and write it down.
32.2 µM

Others:
Find IC50 for COc1ccc2c3c1C[C@H]1C[C@@H](O)C=C[C@]31CCN(C)C2 on Acetylcholinesterase (Rattus norvegicus, UniProt P37136) and write it down.
3.1 µM

Find IC50 for Nc1c2c(nc3nn(-c4ccccc4)cc13)CCCC2 on Acetylcholinesterase (Rattus norvegicus, UniProt P37136) and write it down.
6.01 µM

Find IC50 for Cc1nn(-c2ccccc2)c2c(N)c3c(nc12)CCCC3 on Acetylcholinesterase (Rattus norvegicus, UniProt P37136) and write it down.
26.7 µM

Find IC50 for Cc1nn(-c2ccccc2)c2nc3c(c(N)c12)CCC3 on Acetylcholinesterase (Rattus norvegicus, UniProt P37136) and write it down.
31.2 µM
